Reported pIC50 values for a set of compounds
molecular target: Nitric oxide synthase 1 (Homo sapiens, UniProt P29475); experiment: Inhibition of recombinant human nNOS expressed in baculovirus infected insect Sf9 cells assessed as conversion of [3H]-L-arginine into [3H]-L-citrulline by radiometric method
Sequence (P29475 whole entry): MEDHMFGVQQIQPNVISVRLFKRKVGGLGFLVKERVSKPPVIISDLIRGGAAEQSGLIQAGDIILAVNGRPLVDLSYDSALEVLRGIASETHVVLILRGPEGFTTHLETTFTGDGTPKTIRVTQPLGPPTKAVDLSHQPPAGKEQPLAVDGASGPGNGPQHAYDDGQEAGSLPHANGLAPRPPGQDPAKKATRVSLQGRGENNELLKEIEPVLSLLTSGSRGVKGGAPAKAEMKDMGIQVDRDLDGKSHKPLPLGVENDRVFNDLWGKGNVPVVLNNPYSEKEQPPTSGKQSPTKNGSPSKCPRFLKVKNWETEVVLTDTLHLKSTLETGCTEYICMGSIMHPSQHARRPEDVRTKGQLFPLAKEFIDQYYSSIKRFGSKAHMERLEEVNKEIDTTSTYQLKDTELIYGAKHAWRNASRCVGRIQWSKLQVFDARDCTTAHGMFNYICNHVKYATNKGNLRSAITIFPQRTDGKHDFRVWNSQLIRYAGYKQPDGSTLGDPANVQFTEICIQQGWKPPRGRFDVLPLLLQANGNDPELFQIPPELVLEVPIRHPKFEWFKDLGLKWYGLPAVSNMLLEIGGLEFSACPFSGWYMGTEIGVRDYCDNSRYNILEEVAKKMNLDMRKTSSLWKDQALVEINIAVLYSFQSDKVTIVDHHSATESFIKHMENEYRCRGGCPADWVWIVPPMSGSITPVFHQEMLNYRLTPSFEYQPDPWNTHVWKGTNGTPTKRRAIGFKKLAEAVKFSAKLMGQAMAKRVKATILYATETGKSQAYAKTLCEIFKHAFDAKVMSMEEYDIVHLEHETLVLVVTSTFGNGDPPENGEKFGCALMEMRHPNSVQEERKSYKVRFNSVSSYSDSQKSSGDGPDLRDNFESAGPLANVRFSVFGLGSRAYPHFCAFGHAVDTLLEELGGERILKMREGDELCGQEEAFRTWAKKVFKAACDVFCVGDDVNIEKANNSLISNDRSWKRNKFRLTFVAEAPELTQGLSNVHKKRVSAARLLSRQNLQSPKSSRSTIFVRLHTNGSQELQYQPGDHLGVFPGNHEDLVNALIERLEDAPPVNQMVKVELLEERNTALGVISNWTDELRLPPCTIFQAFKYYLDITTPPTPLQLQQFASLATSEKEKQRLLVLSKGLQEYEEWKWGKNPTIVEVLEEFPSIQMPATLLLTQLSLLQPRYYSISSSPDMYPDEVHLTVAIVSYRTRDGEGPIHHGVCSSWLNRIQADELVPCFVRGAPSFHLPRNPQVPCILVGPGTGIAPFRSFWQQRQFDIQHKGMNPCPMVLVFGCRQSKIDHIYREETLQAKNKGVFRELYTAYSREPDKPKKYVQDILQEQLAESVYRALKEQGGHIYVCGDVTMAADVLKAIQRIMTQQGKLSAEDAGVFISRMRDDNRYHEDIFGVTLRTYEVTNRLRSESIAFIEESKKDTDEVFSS
Units for pIC50: none; it is -log10 of a concentration expressed in mol/L.

> print(dat)
                                   compound                                    target  readout  meas.value
1  CN1CCCC(n2ccc3ccc(NC(=N)c4ccco4)cc32)CC1 (stereo unspecified)  Nitric oxide synthase 1 (Homo sapiens, UniProt P29475)    pIC50        6.28
2    CCN(CC)CCCn1ccc2ccc(NC(=N)c3cccs3)cc21  Nitric oxide synthase 1 (Homo sapiens, UniProt P29475)    pIC50        6.82
3   N=C(Nc1ccc2ccn(CCCN3CCOCC3)c2c1)c1cccs1  Nitric oxide synthase 1 (Homo sapiens, UniProt P29475)    pIC50        6.15
4  CN1CCCC1CCn1ccc2ccc(NC(=N)c3cccs3)cc21 (racemic)  Nitric oxide synthase 1 (Homo sapiens, UniProt P29475)    pIC50        6.66
5     CN(C)CCCCn1ccc2ccc(NC(=N)c3cccs3)cc21  Nitric oxide synthase 1 (Homo sapiens, UniProt P29475)    pIC50        6.59

Consider now this further compound.
Note down pIC50 recorded for N=C(Nc1ccc2ccn(CCCN3CCCC3)c2c1)c1cccs1
6.35

----------
Reported Ratio IC50 values for a set of molecules
target: Nitric oxide sythases; iNOS & nNOS (Homo sapiens) (UniProt P29475+P35228); assay: Selectivity ratio of IC50 for recombinant human iNOS to IC50 for recombinant human nNOS
Sequence (P29475 whole entry, looked up): as the sequence (P29475 whole entry) above
Sequence (P35228 whole entry, looked up): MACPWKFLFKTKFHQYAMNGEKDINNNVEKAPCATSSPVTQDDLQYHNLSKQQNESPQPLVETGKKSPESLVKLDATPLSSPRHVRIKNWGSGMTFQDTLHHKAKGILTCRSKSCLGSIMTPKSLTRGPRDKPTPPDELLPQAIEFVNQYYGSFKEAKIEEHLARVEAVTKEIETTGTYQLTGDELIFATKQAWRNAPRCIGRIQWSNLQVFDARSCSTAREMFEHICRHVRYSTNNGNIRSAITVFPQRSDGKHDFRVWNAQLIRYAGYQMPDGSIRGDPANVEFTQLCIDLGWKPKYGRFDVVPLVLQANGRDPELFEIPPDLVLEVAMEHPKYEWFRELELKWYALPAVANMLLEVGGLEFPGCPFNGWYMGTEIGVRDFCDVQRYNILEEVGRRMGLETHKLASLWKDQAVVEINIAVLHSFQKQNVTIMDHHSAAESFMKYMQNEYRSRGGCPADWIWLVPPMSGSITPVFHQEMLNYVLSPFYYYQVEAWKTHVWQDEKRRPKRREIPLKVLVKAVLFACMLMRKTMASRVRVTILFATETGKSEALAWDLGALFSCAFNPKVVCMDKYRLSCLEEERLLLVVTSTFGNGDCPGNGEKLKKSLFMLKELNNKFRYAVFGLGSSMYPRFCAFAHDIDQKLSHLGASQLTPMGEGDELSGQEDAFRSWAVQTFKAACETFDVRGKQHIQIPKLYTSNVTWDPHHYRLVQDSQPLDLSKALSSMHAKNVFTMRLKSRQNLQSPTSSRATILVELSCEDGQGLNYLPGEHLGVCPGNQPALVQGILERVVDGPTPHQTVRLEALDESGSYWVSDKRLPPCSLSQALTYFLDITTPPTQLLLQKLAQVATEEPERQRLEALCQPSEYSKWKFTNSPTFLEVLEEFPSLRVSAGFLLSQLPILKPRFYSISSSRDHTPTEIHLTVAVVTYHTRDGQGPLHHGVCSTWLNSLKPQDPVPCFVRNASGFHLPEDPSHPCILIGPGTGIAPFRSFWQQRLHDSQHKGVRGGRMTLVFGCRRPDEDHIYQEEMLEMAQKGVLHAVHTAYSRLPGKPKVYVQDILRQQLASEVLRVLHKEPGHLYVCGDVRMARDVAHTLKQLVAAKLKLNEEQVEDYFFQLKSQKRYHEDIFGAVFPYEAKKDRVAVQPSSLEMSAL
Lab note: record the figure alone, no unit after it.

In the examples that follow, each entry is paired with its recorded Ratio IC50.
> print(dat)
                                   molecule  meas.value
1  N/C(=N\c1ccc2ccn(CCCN3CCOCC3)c2c1)c1ccsc1          50
2  N/C(=N\c1ccc2ccn(CCN3CCCCC3)c2c1)c1cccs1          43

Note down Ratio IC50 recorded for N/C(=N\c1ccc2ccn(CCCN3CCOCC3)c2c1)c1cccs1
117

Note down Ratio IC50 recorded for CN1CCCC1CCn1ccc2ccc(/N=C(\N)c3cccs3)cc21 (racemic)
309

Note down Ratio IC50 recorded for CN(C)CCCCn1ccc2ccc(/N=C(\N)c3cccs3)cc21
254

Note down Ratio IC50 recorded for CN1CCC[C@@H]1CCn1ccc2ccc(/N=C(\N)c3cccs3)cc21
225

Note down Ratio IC50 recorded for CN1CCCC(n2ccc3ccc(NC(=N)c4ccco4)cc32)CC1 (centres undefined)
2

Note down Ratio IC50 recorded for N/C(=N\c1ccc2ccn(CCCN3CCOCC3)c2c1)c1ccco1
15

Note down Ratio IC50 recorded for CN1CCC[C@H]1CCn1ccc2ccc(/N=C(\N)c3cccs3)cc21
360

----------
species on record: Homo sapiens; assay: Selectivity ratio of IC50 for recombinant human eNOS to IC50 for recombinant human nNOS
# if value of Ratio IC50 reaches 40, tag yes (1); if it stays below, tag no (0)

> print(dat)
                                   compound  label.value
1  CN1CCCC(n2ccc3ccc(NC(=N)c4ccco4)cc32)CC1 (stereo unspecified)      yes (1)
2  CN1CCC[C@@H]1CCn1ccc2ccc(/N=C(\N)c3cccs3)cc21      yes (1)
3  CN1CCC[C@H]1CCn1ccc2ccc(/N=C(\N)c3cccs3)cc21      yes (1)

Is Ratio IC50 for CCN(CC)CCCn1ccc2ccc(/N=C(\N)c3cccs3)cc21 at or above 40?
yes (1)

Is Ratio IC50 for N/C(=N\c1ccc2ccn(CCCN3CCOCC3)c2c1)c1ccsc1 at or above 40?
no (0)

Is Ratio IC50 for N/C(=N\c1ccc2ccn(CCCCn3ccnc3)c2c1)c1cccs1 at or above 40?
no (0)

Is Ratio IC50 for N/C(=N\c1ccc2ccn(CCN3CCCCC3)c2c1)c1cccs1 at or above 40?
no (0)

Is Ratio IC50 for N/C(=N\c1ccc2ccn(CCCN3CCCC3)c2c1)c1cccs1 at or above 40?
no (0)

Is Ratio IC50 for N/C(=N\c1ccc2ccn(CCCN3CCOCC3)c2c1)c1ccco1 at or above 40?
no (0)

Is Ratio IC50 for CN1CCCC(n2ccc3ccc(/N=C(\N)c4cccs4)cc32)CC1 (stereo unspecified) at or above 40?
yes (1)

----------
target: Nitric oxide synthase, inducible (Homo sapiens, UniProt P35228); experiment: Inhibition of recombinant human iNOS expressed in baculovirus infected insect Sf9 cells assessed as conversion of [3H]-L-arginine into [3H]-L-citrulline by radiometric method
Sequence (P35228 whole entry): as the sequence (P35228 whole entry, looked up) above
READOUT: pIC50
Units for pIC50: none; it is -log10 of a concentration expressed in mol/L.

> print(dat)
                                   compound  meas.value
1  CN1CCC[C@H]1CCn1ccc2ccc(/N=C(\N)c3cccs3)cc21        4.14
2  CN1CCC[C@@H]1CCn1ccc2ccc(/N=C(\N)c3cccs3)cc21        4.14
3   N=C(Nc1ccc2ccn(CCCN3CCOCC3)c2c1)c1cccs1        4.09
4    N=C(Nc1ccc2ccn(CCN3CCCCC3)c2c1)c1cccs1        4.68
5  CN1CCCC(n2ccc3ccc(NC(=N)c4ccco4)cc32)CC1 (configuration not stated)        5.92
6       CN(C)CCn1ccc2ccc(N=C(N)c3cccs3)cc21        4.22
7   N=C(Nc1ccc2ccn(CCCN3CCOCC3)c2c1)c1ccsc1        4.15
8   N=C(Nc1ccc2ccn(CCCN3CCOCC3)c2c1)c1ccco1        4.44
9     CN(C)CCCCn1ccc2ccc(NC(=N)c3cccs3)cc21        4.18

Consider now this further compound.
Note down pIC50 recorded for CN1CCCC1CCn1ccc2ccc(NC(=N)c3cccs3)cc21 (racemic)
4.17

----------
organism: Homo sapiens; experiment: Selectivity ratio of IC50 for recombinant human eNOS to IC50 for recombinant human nNOS
Reported Ratio IC50 values for a set of compounds
Lab note: record the figure alone, no unit after it.

> print(dat)
                                   compound  meas.value
1       CNCCCn1ccc2ccc(/N=C(\N)c3cccs3)cc21           6
2  CN1CCCC1CCn1ccc2ccc(/N=C(\N)c3cccs3)cc21 (racemic)          86
3  N/C(=N\c1ccc2ccn(CCCN3CCOCC3)c2c1)c1ccoc1          19

Consider now this further compound.
Note down Ratio IC50 recorded for CN(C)CCCCn1ccc2ccc(/N=C(\N)c3cccs3)cc21
10

----------
Reported pIC50 values for a set of compounds
target: Nitric oxide synthase 3 (Homo sapiens, UniProt P29474); assay: Inhibition of recombinant human eNOS expressed in baculovirus infected insect Sf9 cells assessed as conversion of [3H]-L-arginine into [3H]-L-citrulline by radiometric method
Sequence (P29474 whole entry): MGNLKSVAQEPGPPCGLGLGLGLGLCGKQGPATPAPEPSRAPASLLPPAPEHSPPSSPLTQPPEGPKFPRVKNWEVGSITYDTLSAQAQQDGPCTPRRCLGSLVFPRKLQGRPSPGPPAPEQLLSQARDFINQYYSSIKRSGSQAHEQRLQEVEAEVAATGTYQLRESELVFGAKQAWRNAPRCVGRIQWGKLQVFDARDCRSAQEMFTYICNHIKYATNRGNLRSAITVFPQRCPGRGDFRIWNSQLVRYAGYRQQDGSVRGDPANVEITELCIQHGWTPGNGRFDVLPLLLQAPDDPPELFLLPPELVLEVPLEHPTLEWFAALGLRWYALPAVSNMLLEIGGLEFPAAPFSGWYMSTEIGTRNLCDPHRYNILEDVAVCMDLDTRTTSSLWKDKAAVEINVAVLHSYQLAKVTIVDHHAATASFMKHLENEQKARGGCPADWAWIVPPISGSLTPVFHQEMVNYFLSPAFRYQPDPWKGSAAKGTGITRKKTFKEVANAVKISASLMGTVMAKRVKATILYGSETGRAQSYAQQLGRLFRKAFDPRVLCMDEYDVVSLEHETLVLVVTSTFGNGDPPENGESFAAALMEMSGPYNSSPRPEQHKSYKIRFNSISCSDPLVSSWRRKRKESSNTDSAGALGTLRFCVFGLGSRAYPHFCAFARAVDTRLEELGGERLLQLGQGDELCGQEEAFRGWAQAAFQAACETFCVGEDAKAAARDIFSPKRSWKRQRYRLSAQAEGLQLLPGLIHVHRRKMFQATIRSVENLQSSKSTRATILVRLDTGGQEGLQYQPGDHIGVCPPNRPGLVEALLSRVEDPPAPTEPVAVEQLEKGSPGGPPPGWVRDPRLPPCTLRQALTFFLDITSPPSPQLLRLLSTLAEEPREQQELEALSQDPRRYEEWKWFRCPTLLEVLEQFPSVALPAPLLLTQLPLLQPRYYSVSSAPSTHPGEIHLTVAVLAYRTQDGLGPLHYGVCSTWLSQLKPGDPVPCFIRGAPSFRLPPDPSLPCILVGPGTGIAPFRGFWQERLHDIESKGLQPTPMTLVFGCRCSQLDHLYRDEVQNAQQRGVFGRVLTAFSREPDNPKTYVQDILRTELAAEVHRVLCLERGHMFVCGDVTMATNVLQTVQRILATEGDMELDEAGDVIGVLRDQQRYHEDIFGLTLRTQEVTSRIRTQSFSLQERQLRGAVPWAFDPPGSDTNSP
Units for pIC50: none; it is -log10 of a concentration expressed in mol/L.

> print(dat)
                                   compound  meas.value
1  CN1CCCC(n2ccc3ccc(NC(=N)c4cccs4)cc32)CC1 (centres undefined)        4.42

Note down pIC50 recorded for N=C(Nc1ccc2ccn(CCCN3CCCC3)c2c1)c1cccs1
4.95

Note down pIC50 recorded for CN1CCCC1CCn1ccc2ccc(NC(=N)c3cccs3)cc21 (racemic)
4.72

Note down pIC50 recorded for CN1CCCC(n2ccc3ccc(NC(=N)c4ccco4)cc32)CC1 (centres undefined)
4.51

Note down pIC50 recorded for N=C(Nc1ccc2ccn(CCCN3CCOCC3)c2c1)c1cccs1
4.55

Note down pIC50 recorded for N=C(Nc1ccc2ccn(CCCCn3ccnc3)c2c1)c1cccs1
4.64

Note down pIC50 recorded for CNCCCn1ccc2ccc(NC(=N)c3cccs3)cc21
4.93

Note down pIC50 recorded for CN(C)CCCCn1ccc2ccc(NC(=N)c3cccs3)cc21
5.60

Note down pIC50 recorded for CN(C)CCCn1ccc2ccc(NC(=N)c3cccs3)cc21
4.63
